- Test system: UUO model of kidney fibrosis
- Test summary: Unilateral ureteral obstruction (UUO) model of kidney fibrosis: kidney collagen 1A1 and collagen 3A1 expression by real-time PCR
- Assay type: in vivo, mice
- Conditions used: Table K; group mean; UUO mice, 20 mg/kg at days -3, -1, +5; kidney at day 11; UUO-PBS mean 87.2
Let's look at some substances and their measured Collagen 3A1 (Normalized Expression) Mean.
# print the numeric value only

AECSAETECSAEGETECSTEGEAEUSAEAEGECSTEAE (ACATCAGTCTGATAAGCTA; anti-miR; sugar and backbone modifications, code letters not given here, further chemistry not given here) [Compound 25072]	65.5

Challenge: Recorded Collagen 3A1 (Normalized Expression) Mean of TE^MeCAACSATCSAGTCSTGAUSAAGCSTAE (TCAACATCAGTCTGATAAGCTA; modified nucleosides with 5-methyl C, code letters not given here, further chemistry not given here) [Compound 25082] , please.
Response given: 59.1
